- assayText: solvent given as SMILES
- conditionDetails: in ClC(Cl)Cl
Give absorption maximum for every item shown.

Task item: Reported absorption maximum, compound CC(C)(C)c1ccc2oc3nc4oc5ccc(N6c7ccccc7Oc7ccccc76)cc5c4cc3c2c1 : ____
Reply: 347 nm

Task item: Any idea what absorption maximum was measured for C(#Cc1ccccc1)C(C#Cc1ccccc1)=Cc1ccc(C=C(C#Cc2ccccc2)C#Cc2ccccc2)s1 ?
Reply: 468 nm

Task item: Query: absorption maximum; subject: O=[N+]([O-])c1ccc(NCCNCc2c3ccccc3cc3ccccc23)c([N+](=O)[O-])c1
Reply: 350 nm

Task item: Which absorption maximum is listed for CC1(C)CC(NCc2ccc3ccc4cccc5ccc2c3c45)CC(C)(C)N1 ?
Reply: 389 nm

Task item: Query (compound): O=C1c2ccccc2C2=Cc3cc4c(cc3B(O)N12)OCO4 ; field requested: absorption maximum
Reply: 397 nm

Task item: Fill blank: measured absorption maximum of the compound CCCCCCC(CCCCCC)N1C(=O)c2cccc3c(-c4ccc(N(C)C)cc4)ccc(c23)C1=O is ____.
Reply: 426.2 nm

Task item: Which value of absorption maximum has been reported for c1cc(N2CCCC2)ccn1 in the records?
Reply: 285 nm

Task item: Which absorption maximum value belongs to O=C1CC(c2ccccc2)c2c(c3ccccc3c3nc4ccccc4nc23)O1 (centres undefined) ?
Reply: 410 nm

Task item: Can you look up the measured absorption maximum of CCCCCCN(c1ccccc1)c1ccc(/C=C/c2cc(=O)oc3cc(C)ccc23)cc1 for me?
Reply: 424 nm

Task item: Suppose we examine the compound CC[n+]1c(C=C2C(=O)C(C=C3N(C)c4ccc(Cl)cc4C3(C)C)=C2[O-])[se]c2ccccc21 ; what absorption maximum value has been reported?
Reply: 655 nm

Task item: I'd like to know its absorption maximum. The compound in question is N#CC(C#N)=Cc1ccc(-c2ccc(N(c3ccccc3)c3ccccc3)cc2)o1
Reply: 509 nm

Task item: Which absorption maximum is listed for CC(C)(C)N1C(=O)c2c(cc3ccc4cccc5ccc2c3c45)C1O (centres undefined) ?
Reply: 385 nm

Task item: Return reported absorption maximum; argument: CN(C)c1ccc(-c2ccc(-c3cc(-c4ccccc4)c(-c4ccccc4)c(-c4ccccc4)c3-c3ccccc3)cc2)cc1
Reply: 323 nm

Task item: Recorded absorption maximum of COc1cc(N(c2ccccc2)c2ccc(C=C(C#N)C#N)c(OC)c2)ccc1C=C(C#N)C#N , please.
Reply: 480 nm

###

Can you tell me absorption maximum for the items I'm about to list?
- assayText: solvent given as SMILES
- conditionDetails: in CO

Task item: Field request: absorption maximum | item: Cc1cc(O)c(-c2[nH]c(=O)n3c2-c2ccccc2C3=O)cc1Cl
Reply: 395 nm

Task item: Reported absorption maximum for O=C1C=C(Nc2ccc(F)c(F)c2)C(=O)c2ccccc21 : what is it?
Reply: 454 nm

Task item: I'd like to know its absorption maximum. The compound in question is CCn1c2ccccc2c2cc(/C=C3\C(=O)c4ccccc4S3(=O)=O)ccc21
Reply: 446 nm

Task item: # lookup: absorption maximum of O=Cc1c(O)c(-c2nc3ccccc3s2)cc2ccccc12
Reply: 349 nm

Task item: Requested read-out: absorption maximum. Entry: CC1=CC(C)=[N+]2C1=C(c1ccc(N3CCOCC3)cc1)c1c(C)cc(C)n1[B-]2(F)F
Reply: 494 nm

Task item: // query absorption maximum value for entry CN(C)c1ccc2c(c1)[Si](C)(C)C1=CC(=[N+](C)C)C=CC1=C2C#Cc1ccccc1
Reply: 712 nm
